# credit: the nanobody polyreactivity screen of Harvey et al. (2022)

Test: yeast display, Sf9 membrane polyspecificity reagent, FACS + sequencing; frameworks hold sequencing errors
endpoint.label: polyreactivity (PSR sort gate)

Some solved cases for reference:
# seq.string, polyreactivity (PSR sort gate)
records = [
    ("QVQLVESGGGLVQAGGSLRLSCAASNSSINAMGWYRQAPGKERELVAAIRWSGSSTYYADSEKGRFPISRDNAKTTVYLQMNSLKPEDTAVYYCAADTTTGDRGFDYWGQGTQVTVSS", "high polyreactivity"),
    ("QVQLVESGGGLVQAGGSLRLSCAASGFSFFKYAMGWYRQAPGKERELVAAISSSGGSTYYADSVKGRFTISRDNAKKTVYLQMNSLKPEDTAVYYCAVDNLKCRAQSLDGFDYWGQGTQVTVSS", "high polyreactivity"),
    ("QVQLVESGGGLVQAGGSLRLSCAASGITFFTYTMGWYRQAPGKERELVARIRWDGGSTYYADSVKGRFTISRDNAKNTVYLQMNSLKPEDTAVYYCAADYPYSTYDYWGQVTQVTVSS", "low polyreactivity"),
    ("QVQLVDSGGGLVQEGGSLRLSCAASGSIFSTYARGWYRQAPGKEWEVVAAITRGGRTTYADSVKGRFTISRDNAKNTVYLQMNSLKPEDTAVYYCNAVGVYYWWYRLYDYWGQGTQVTLSS", "high polyreactivity"),
    ("QVQLVESGGGLVQAGGSLRLSCAASGITFRWYAMGWYRQAPGKERELVAAISTSGTRTYYADSVKGRFTISRDNAKNTVYLLMNSLKPEDTAVYYCAADYGRQLGRYGFGYWGQGTQVSVSS", "high polyreactivity"),
]

Prompt: Need polyreactivity (PSR sort gate) of QVQLVESGGGLVQAGGSLRLSCAASGRTFGRYAMGWSRQAPGKERELVATITSGGSTNYADSVKGRFTISRDNAKNTVYLQMNSLKPEDTAVYYCAAEFSPSRWAYSEGALRYNYWGQGTQVTVSS , thanks.
Completion: low polyreactivity

* * *

Assay: yeast display, Sf9 membrane polyspecificity reagent, FACS + sequencing; frameworks hold sequencing errors
endpoint.label: polyreactivity (PSR sort gate)

Some solved cases for reference:
# seq.string, polyreactivity (PSR sort gate)
data = [
    ("QVQLVESGGGIVQAGGSLRLSSAASGLTFAYNTMGWYRQAPGIEREFVASISSSGGNTYYADSVKGRFTISRDNAKNTVYLQMHSLKPEDTAVYYCAAKKKYHYVATYKRFENWGQGTHVTVSS", "low polyreactivity"),
    ("QLQLVESGGGLVQAGGSLRLSCAASGSTFGSNAMGWYRQAPGKERELVAAISTSSGSTYYAVSVKGRFTISRDNAMNTVYLQMNSMKPEDTAVYYCNADRHYVPYYSRPRYIPYDYWGQGTQVTVSS", "high polyreactivity"),
    ("QVQLVESGGGLVQAGGSLRLSCAASGFIFLYYAMGWYIQAPGKERELVAAITTRGGRTYYADSVKGRFTISRDNAKNTVYLQMNSLKPEDTAVYYCAADHLYWGLEYESWGQGTQVTVSS", "low polyreactivity"),
    ("QVQIVESGGGLVQAGGSLRLSCAASGSTINYNAMGWYRQAPGKERELVAAISTNGGSTYYADSVKGRFTISRDNAKNTVYLQMNSLKPEDTAVYYCNKVRKYSRHYDYWGQGTQVTVSS", "high polyreactivity"),
]

Now examine the next entry.
Prompt: Need polyreactivity (PSR sort gate) of QVQLVESGGGLVQAGGSLRLSCAASGFIFVIYAMGWSRQAPGKERELVAAIRWRGGGTYYADSVKGRFTISRDNAKNTVYLQMYSLKPEDTAVYYCNADGWTYREEYWWRMDYWGQGTQVTVSS , thanks.
Completion: low polyreactivity
